Source of measurements: ChEMBL document CHEMBL5584359

experiment: AUC (0 to 24 hrs) in Sprague-Dawley rat at 1.5 mg/kg, po measured for 24 hrs by LC-MS/MS analysis; format: ADME, organism-based; details: in vivo
Reported metric: AUC(0-t) at 24 h (µg·h/mL)
Give the number; µg·h/mL is assumed, so skip it.

I have this molecule here, `CC(C)c1cc(Oc2c(Cl)cc(-n3nc(C#N)c(=O)[nH]c3=O)cc2Cl)n[nH]c1=O` , and I need its recorded AUC(0-t) at 24 h.
9.41
